target: horse spleen apoferritin (Equus caballus, UniProt P02791); assay: 1-AMA/apoferritin fluorescence competition assay, qHTS in 1,536-well format; type: binding; settings: computed directly from 1-AMA inhibition data, infinite value fixed to -70%; seven concentrations 77 µM to 25 nM; read-out: qHTS IC50
Where a name gives a salt, the structure may show the parent alone.
Category scheme (IC50): bucket A (below 40 µM), bucket B (40 µM to below 100 µM), bucket C (100 µM or more)

Hi there! Could you help me figure out the category for "O=c1oc(Cl)c(Cl)c2ccccc12" please? bucket C

Hi there! Could you help me figure out the category for "CC1(C)CCC2=C(O1)c1ccccc1C(=O)C2=O" please? bucket A

Hi there! Could you help me figure out the category for "Cc1cccc(C#Cc2ccccc2)n1" please? bucket C

Hi there! Could you help me figure out the category for S=C([S-])OC1CC2CC1C1CCCC21.[K+] (stereo not drawn) please? bucket A

Hi there! Could you help me figure out the category for C=C1C(=O)O[C@H]2[C@H]1CC/C(C)=C/CC[C@@]1(C)O[C@@H]21 [P-0667, Parthenolide] please? bucket B

Hi there! Could you help me figure out the category for "Cc1ccc(O)c(/N=N/c2ccccc2)n1" please? bucket B

Hi there! Could you help me figure out the category for CC(N)c1cccc(Cl)c1Cl (racemic) please? bucket B

Hi there! Could you help me figure out the category for CCOC(=O)C(C)(C)Oc1ccc(Cl)cc1 [C-6643, Clofibrate] please? bucket C

Hi there! Could you help me figure out the category for c1ccc([C@H]2CN3CCSC3=N2)cc1 [L-9756, (-)-Tetramisole hydrochloride] please? bucket C

----------
Exercise: for every item that follows, state its recorded pIC50.
Target: UniProtKB P02791
Assay: 1-AMA/apoferritin fluorescence competition assay, qHTS in 1,536-well format
Assay type: binding
Conditions: computed directly from 1-AMA inhibition data, infinite value fixed to -70%; seven concentrations 77 µM to 25 nM; read-out: qHTS IC50
Procedure: The previously-reported apoferritin-1-AMA binding assay was miniaturized to 3 µL in 1,536-well plates. Throughout the screen, reagent bottles and all liquid lines were made light-tight to minimize reagent degradation. Activity was computed as the normalized fluorescence response relative to free 1-AMA and 1-AMA/apoferritin complex values. Concentration–effect relationships were derived by using publicly-available curve-fitting algorithms developed in-house (http://ncgc.nih.gov/pub/openhts/). […]
Structures can show the parent of a compound that is named as a salt.
Formally, pIC50 is defined as -log10 of the concentration c, with c in mol/L.

Reported pIC50 for CCSC(=N)Nc1ccc(C(F)(F)F)cc1 [T7188, TFPI hydrochloride] was 4.01

Reported pIC50 for "N#C/C(=C\c1ccc(O)c(O)c1)C(N)=S" was 3.66

Reported pIC50 for "COc1ccc2c(c1)/C(=C/c1cnc[nH]1)C(=O)N2" was 4.06

Reported pIC50 for "O=Nc1ccc2oc(=O)ccc2c1" was 3.97

----------
Exercise: for every item that follows, state its recorded IC50.
Target: horse spleen apoferritin (Equus caballus, UniProt P02791)
Sequence (P02791 2-175 limits assumed): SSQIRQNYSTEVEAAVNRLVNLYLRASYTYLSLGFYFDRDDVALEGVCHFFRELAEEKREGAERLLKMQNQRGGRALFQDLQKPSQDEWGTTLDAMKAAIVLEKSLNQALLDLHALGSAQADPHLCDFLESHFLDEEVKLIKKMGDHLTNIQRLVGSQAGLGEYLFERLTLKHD
Test: 1-AMA/apoferritin fluorescence competition assay, qHTS in 1,536-well format
Assay type: binding
Counter-ions that a name gives are not always drawn.
A number alone suffices; assume µM.

Reported IC50 for "CC(C)c1cccc(C(C)C)c1O" was 67

Reported IC50 for "CN(N=O)c1ccc(O)c(O)c1" was 155

Reported IC50 for Cc1cc(C(C)(C)C)cc(C)c1CC1=NCCN1 [X-6000, Xylometazoline hydrochloride] was 167

Reported IC50 for C#CCN(C)C(C)Cc1ccccc1 (stereo not drawn) [M-003, R-(-)-Deprenyl hydrochloride] was 100

Where do these numbers come from? They come from paper PMC2746312.
